Molecular target: BRM (Homo sapiens, UniProt P51531)
Construct: In-Cell Western Screen of BRM Degradation in SW1573 Cells; endogenous in cells; host or cells: SW1573
Sequence (P51531 whole entry): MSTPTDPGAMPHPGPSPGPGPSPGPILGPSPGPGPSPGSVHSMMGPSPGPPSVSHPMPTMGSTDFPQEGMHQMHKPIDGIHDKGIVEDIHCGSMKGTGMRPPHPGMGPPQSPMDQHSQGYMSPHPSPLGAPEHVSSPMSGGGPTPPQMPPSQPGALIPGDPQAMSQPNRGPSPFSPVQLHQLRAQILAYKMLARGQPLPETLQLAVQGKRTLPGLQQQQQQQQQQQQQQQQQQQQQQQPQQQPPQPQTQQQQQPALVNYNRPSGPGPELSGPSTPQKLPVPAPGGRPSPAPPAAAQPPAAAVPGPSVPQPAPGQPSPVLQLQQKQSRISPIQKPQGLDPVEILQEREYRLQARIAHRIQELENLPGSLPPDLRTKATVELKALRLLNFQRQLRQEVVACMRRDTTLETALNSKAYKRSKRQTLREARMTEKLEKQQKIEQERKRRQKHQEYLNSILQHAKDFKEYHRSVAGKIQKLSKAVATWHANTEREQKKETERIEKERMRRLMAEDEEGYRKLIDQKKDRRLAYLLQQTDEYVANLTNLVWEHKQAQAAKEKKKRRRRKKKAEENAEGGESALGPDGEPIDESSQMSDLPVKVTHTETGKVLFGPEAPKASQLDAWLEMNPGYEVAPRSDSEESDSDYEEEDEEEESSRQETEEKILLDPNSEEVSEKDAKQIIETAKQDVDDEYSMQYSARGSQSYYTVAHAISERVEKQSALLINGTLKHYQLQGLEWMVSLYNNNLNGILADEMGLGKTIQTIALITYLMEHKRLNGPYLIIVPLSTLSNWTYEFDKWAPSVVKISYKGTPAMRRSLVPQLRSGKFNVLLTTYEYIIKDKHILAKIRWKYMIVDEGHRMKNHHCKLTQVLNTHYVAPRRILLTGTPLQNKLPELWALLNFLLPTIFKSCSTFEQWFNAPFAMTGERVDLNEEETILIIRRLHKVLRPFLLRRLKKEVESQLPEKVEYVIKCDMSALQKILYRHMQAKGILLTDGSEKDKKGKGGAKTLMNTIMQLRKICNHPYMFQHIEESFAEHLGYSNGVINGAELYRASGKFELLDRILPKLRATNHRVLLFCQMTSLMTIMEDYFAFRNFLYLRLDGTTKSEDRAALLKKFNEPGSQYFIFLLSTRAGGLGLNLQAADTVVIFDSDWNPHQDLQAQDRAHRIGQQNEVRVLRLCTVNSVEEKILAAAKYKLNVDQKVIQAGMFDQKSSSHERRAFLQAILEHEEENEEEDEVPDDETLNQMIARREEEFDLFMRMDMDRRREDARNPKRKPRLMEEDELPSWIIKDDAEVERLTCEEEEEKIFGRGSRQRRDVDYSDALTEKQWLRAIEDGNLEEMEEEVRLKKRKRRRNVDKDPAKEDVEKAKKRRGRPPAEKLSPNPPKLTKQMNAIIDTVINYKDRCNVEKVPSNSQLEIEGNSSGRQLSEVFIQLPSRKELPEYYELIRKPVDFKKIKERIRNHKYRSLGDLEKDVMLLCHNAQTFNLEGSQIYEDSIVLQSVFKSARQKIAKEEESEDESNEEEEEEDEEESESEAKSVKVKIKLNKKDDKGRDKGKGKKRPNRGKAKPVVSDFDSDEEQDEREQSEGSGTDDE
Experiment: In-cell Western screen of BRM degradation in SW1573 cells (Dmax and DC50)
Format: cell-based
Conditions: BRM degradation; read-out: BRM DC50
Protocol: In-Cell Western Screen of BRM Degradation in SW1573 Cells […] To read each plate TBS-T was removed, and each plate was inverted tapped on a paper towel. The plates were read on the LI-COR Odyssey with default intensity settings of 5.0 for both channels. LI-COR images were analyzed with the in-cell Western feature of Image Studio Lite.
So I've got a bunch of compounds here, and I need their DC50 values.

compound	target system	experimental result
Cc1ncsc1-c1ccc([C@H](C)NC(=O)[C@@H]2C[C@@H](O)CN2C(=O)[C@H](c2cc(N3CCN(C[C@H]4C[C@H](Oc5cc(N6C7CCC6CN(c6cc(-c8ccccc8O)nnc6N)C7)ccn5)C4)CC3)no2)C(C)C)cc1	BRM (Homo sapiens, UniProt P51531)	> 30 nM
Cc1cc([C@@H](C(=O)N2C[C@H](O)C[C@H]2C(=O)N[C@@H](C)c2ccc(-c3scnc3C)cc2)[C@@H](C)COCCCOc2cc(N3C4CCC3CN(c3cc(-c5ccccc5O)nnc3N)C4)ccn2)on1	BRM (Homo sapiens, UniProt P51531)	< 2.5 nM

Query: State its DC50 on BRM (Homo sapiens, UniProt P51531): Cc1ncsc1-c1ncc([C@@H](C)NC(=O)[C@@H]2C[C@@H](O)CN2C(=O)C(c2cc(OCCN3CCC(O[C@H]4C[C@H](Oc5cc(N6C7CCC6CN(c6cc(-c8ccccc8O)nnc6N)C7)ccn5)C4)CC3)no2)C(C)C)cc1F (stereo partly drawn)
Result: < 2.5 nM

###

So I've got a bunch of compounds here, and I need their DC50 values.
Target: BRM (Homo sapiens, UniProt P51531)
Construct: In-Cell Western Screen of BRM Degradation in SW1573 Cells; endogenous in cells; host or cells: SW1573
Experiment: In-cell Western screen of BRM degradation in SW1573 cells (Dmax and DC50)
Format: cell-based
Conditions: target protein degradation; read-out: BRM DC50
Experimental: In-Cell Western Screen of BRM Degradation in SW1573 Cells […] To read each plate TBS-T was removed, and each plate was inverted tapped on a paper towel. The plates were read on the LI-COR Odyssey with default intensity settings of 5.0 for both channels. LI-COR images were analyzed with the in-cell Western feature of Image Studio Lite.

Sample records with DC50:
compound	target system	experimental result
Cc1ncsc1-c1ccc([C@H](C)NC(=O)[C@@H]2C[C@@H](O)CN2C(=O)[C@@H](c2cc(N3CCC(OC4CCN(C[C@H]5C[C@H](Oc6cc(N7C8CCC7CN(c7cc(-c9ccccc9O)nnc7N)C8)ccn6)C5)CC4)CC3)no2)C(C)C)cc1 [compound 474]	BRM (Homo sapiens, UniProt P51531)	< 2.5 nM
Cc1ncsc1-c1ccc([C@H](C)NC(=O)[C@@H]2C[C@@H](O)CN2C(=O)[C@H](c2cc(OCCCCN3CCN(CCCCOc4cc(N5C6CCC5CN(c5cc(-c7ccccc7O)nnc5N)C6)ccn4)CC3)no2)C(C)C)cc1 [compound 389]	BRM (Homo sapiens, UniProt P51531)	10 to 30 nM
CC(C)[C@H](C(=O)N1C[C@H](O)C[C@H]1C(=O)N[C@@H](C)c1ccc(-c2nncs2)cc1)c1cc(OCCN2CCC(O[C@H]3C[C@H](Oc4cc(N5C6CCC5CN(c5cc(-c7ccccc7O)nnc5N)C6)ccn4)C3)CC2)no1 [compound 363]	BRM (Homo sapiens, UniProt P51531)	> 30 nM
Cc1n[nH]c(C)c1-c1ccc([C@H](C)NC(=O)[C@@H]2C[C@@H](O)CN2C(=O)[C@@H](c2cc(OCCN3CCC(O[C@H]4C[C@H](Oc5cc(N6C7CCC6CN(c6cc(-c8ccccc8O)nnc6N)C7)ccn5)C4)CC3)no2)C(C)C)cc1 [compound 378]	BRM (Homo sapiens, UniProt P51531)	< 2.5 nM
CC(C)[C@H](C(=O)N1C[C@H](O)C[C@H]1C(=O)N[C@@H](C)c1ccc(-n2ccccc2=O)cc1)c1cc(OCCN2CCC(O[C@H]3C[C@H](Oc4cc(N5C6CCC5CN(c5cc(-c7ccccc7O)nnc5N)C6)ccn4)C3)CC2)no1 [compound 372]	BRM (Homo sapiens, UniProt P51531)	> 30 nM
Cc1ncsc1-c1ccc([C@H](C)NC(=O)[C@@H]2C[C@@H](O)CN2C(=O)C(c2cc(OCCN3[C@H](C)C[C@H](O[C@H]4C[C@H](Oc5cc(N6C7CCC6CN(c6cc(-c8ccccc8O)nnc6N)C7)ccn5)C4)C[C@@H]3C)no2)C(C)C)cn1 (some centres unmarked) [compound 448]	BRM (Homo sapiens, UniProt P51531)	< 2.5 nM

State recorded DC50 for all listed compounds.
1. Cc1ncsc1-c1ccc([C@H](C)NC(=O)[C@@H]2C[C@@H](O)CN2C(=O)[C@H](c2cc(N3CCC(OC4CCN(C[C@H]5C[C@H](Oc6cc(N7C8CCC7CN(c7cc(-c9ccccc9O)nnc7N)C8)ccn6)C5)CC4)CC3)no2)C(C)C)cc1 [compound 469]
2. CC(C)[C@H](C(=O)N1C[C@H](O)C[C@H]1C(=O)N[C@@H](C)c1ccc(C#N)cc1)c1cc(OCC#Cc2ncc(O[C@H]3C[C@H](Oc4cc(N5C6CCC5CN(c5cc(-c7ccccc7O)nnc5N)C6)ccn4)C3)cn2)no1 [compound 386]

Result:
1. > 30 nM
2. 10 to 30 nM

Ref: patent US12539292B2
